Target: Cloned cathepsin S (Homo sapiens, UniProt P25774)
Construct: made in house
Sequence (P25774 115-331): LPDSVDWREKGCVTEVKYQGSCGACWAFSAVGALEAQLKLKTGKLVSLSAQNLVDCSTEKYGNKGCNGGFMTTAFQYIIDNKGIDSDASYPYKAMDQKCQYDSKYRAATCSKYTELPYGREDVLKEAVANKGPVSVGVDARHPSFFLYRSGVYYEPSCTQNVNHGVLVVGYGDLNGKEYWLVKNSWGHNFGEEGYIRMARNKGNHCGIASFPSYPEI
Assay: Inhibition of cathepsin S, Z-Val-Val-Arg-AMC fluorescence progress curves
Format: biochemical
Details: corrected for substrate; listed as Mu-Phe-Hph-VSPh
Measure Name: Ki (nM)
Numbers only; they are read as nM.

Give recorded Ki with Cloned cathepsin S (Homo sapiens, UniProt P25774) for the following compound: O=C(N[C@H](/C=C/S(=O)(=O)c1ccccc1)CCc1ccccc1)C(Cc1ccccc1)NC(=O)N1CCOCC1 (stereo partly shown) [Mu-Phe-HphVSPh] 23

---

Target: Cathepsin B from human placenta (Homo sapiens, UniProt P07858)
Construct: Cathepsin B from human placenta, obtained from Sigma; purchased Sigma; host or cells: human placenta (tissue)
Assay: Inhibition of cathepsin B, Z-Arg-Arg-AMC fluorescence progress curves
Type: biochemical
Field: label. Allowed values: Yes (kirr < 0.1 s⁻¹) or No (kirr >= 0.1 s⁻¹).

Reference set, count: 5
Br.N=C(N)NCCC[C@@H](/C=C/S(=O)(=O)c1ccccc1)NC(=O)[C@H](Cc1ccccc1)NC(=O)N1CCOCC1	No
Br.CCOC(=O)/C=C/[C@H](CCCNC(=N)N)NC(=O)[C@H](Cc1ccccc1)NC(=O)N1CCOCC1	No
O=C(NCCCC[C@@H](/C=C/S(=O)(=O)c1ccccc1)NC(=O)[C@H](Cc1ccccc1)NC(=O)N1CCOCC1)OCc1ccccc1 [Mu-Phe-Lys(Z)VSPh]	No
CS(=O)(=O)/C=C/[C@H](CCc1ccccc1)NC(=O)[C@H](Cc1ccccc1)NC(=O)N1CCOCC1	No
O=C(N[C@H](/C=C/S(=O)(=O)c1ccccc1)CCc1ccccc1)C(Cc1cc(I)c(O)c(I)c1)NC(=O)N1CCOCC1 (some centres unmarked)	No

In plain terms, does `O=C(N[C@H](/C=C/S(=O)(=O)c1ccc2ccccc2c1)CCc1ccccc1)[C@H](Cc1ccccc1)NC(=O)N1CCOCC1` come in under 0.1 s⁻¹ for kirr? Yes

In plain terms, does O=C(N[C@H](/C=C/S(=O)(=O)c1ccccc1)CCc1ccccc1)C(Cc1ccccc1)NC(=O)N1CCOCC1 (some centres unmarked) come in under 0.1 s⁻¹ for kirr? No

In plain terms, does `Br.Br.N=C(N)NCCC[C@@H](/C=C/S(=O)(=O)c1ccccc1)NC(=O)[C@H](CCCNC(=N)N)NC(=O)N1CCOCC1` come in under 0.1 s⁻¹ for kirr? Yes

---

Test system: Trypanosoma cruzi amastigote infected macrophages
Assay: In vitro antiprotozoal activity, Trypanosoma cruzi
Type: cell-based
Conditions: 10 uM
Measure Name: percentage inhibition, T. cruzi (%)
Numbers only; they are read as %.

O=C(N[C@H](/C=C/S(=O)(=O)c1ccccc1)CCc1ccccc1)C(Cc1ccccc1)NC(=O)N1CCOCC1 (stereo partly drawn)	10
CS(=O)(=O)/C=C/[C@@H](N)Cc1ccccc1.Cl [HCl.PheVSMe]	0
O=C(NCCCC[C@@H](/C=C/S(=O)(=O)c1ccccc1)NC(=O)[C@H](Cc1ccccc1)NC(=O)N1CCOCC1)OCc1ccccc1 [Mu-Phe-Lys(Z)VSPh]	0
Br.N=C(N)NCCC[C@@H](/C=C/S(=O)(=O)c1ccccc1)NC(=O)[C@H](Cc1ccccc1)NC(=O)N1CCOCC1	0
CC(C)C[C@H](NC(=O)N1CCOCC1)C(=O)N[C@H](/C=C/S(=O)(=O)c1ccccc1)CCc1ccccc1	0

Now consider the entry below.
Report percentage inhibition, T. cruzi for Cl.NC(C=CS(=O)(=O)c1ccccc1)CCCCNC(=O)OCc1ccccc1 (stereo not drawn) [HCl.(e-Z)LysVSPh] please. 10.6

---

System: Trypanosoma brucei extracellular bloodstream forms
Test: In vitro antiprotozoal activity, Trypanosoma brucei
Type: cell-based
Conditions: 3 uM
Parameter: percentage inhibition, T. brucei. Scope: all listed entries.
# include the unit after the value

Cl.NC(C=CS(=O)(=O)c1ccccc1)CCCCNC(=O)OCc1ccccc1 (stereo not drawn) [HCl.(e-Z)LysVSPh]	13%
CS(=O)(=O)/C=C/[C@@H](N)Cc1ccccc1.Cl [HCl.PheVSMe]	0%
O=C(NCCCC[C@@H](/C=C/S(=O)(=O)c1ccccc1)NC(=O)[C@H](Cc1ccccc1)NC(=O)N1CCOCC1)OCc1ccccc1 [Mu-Phe-Lys(Z)VSPh]	29.9%
Br.N=C(N)NCCC[C@@H](/C=C/S(=O)(=O)c1ccccc1)NC(=O)[C@H](Cc1ccccc1)NC(=O)N1CCOCC1 [Mu-Phe-ArgVSPh.HBr]	0%
O=C(N[C@H](/C=C/S(=O)(=O)c1ccccc1)CCc1ccccc1)C(Cc1ccccc1)NC(=O)N1CCOCC1 (stereo partly drawn) [Mu-Phe-HphVSPh]	90.5%

Report percentage inhibition, T. brucei for CC(C)C[C@H](NC(=O)N1CCOCC1)C(=O)N[C@H](/C=C/S(=O)(=O)c1ccccc1)CCc1ccccc1 [Mu-Leu-HphVSPh] please. 11.2%

---

Parameter: pKi. Scope: all listed entries.
Biological target: Cathepsin L from rat liver (Rattus norvegicus, UniProt P07154)
Construct: Cathepsin L from rat liver; from tissue; host or cells: rat liver
Sequence (P07154 114-288 limits assumed): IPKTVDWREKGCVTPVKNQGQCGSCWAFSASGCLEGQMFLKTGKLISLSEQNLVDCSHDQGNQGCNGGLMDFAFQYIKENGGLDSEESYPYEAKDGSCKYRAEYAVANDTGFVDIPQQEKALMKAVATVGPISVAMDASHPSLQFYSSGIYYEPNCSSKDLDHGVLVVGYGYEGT
Sequence (P07154 291-334 limits assumed): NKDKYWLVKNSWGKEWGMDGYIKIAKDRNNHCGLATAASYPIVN
Assay: Inhibition of cathepsin L, Z-Phe-Arg-AMC fluorescence progress curves
Type: biochemical
Settings: corrected for substrate
pKi here: minus log base 10 of the concentration, concentration in moles per litre.

Some solved entries appear below for comparison.
Br.CCOC(=O)/C=C/[C@H](CCCNC(=N)N)NC(=O)[C@H](Cc1ccccc1)NC(=O)N1CCOCC1	5.51
O=C(N[C@H](/C=C/S(=O)(=O)c1ccccc1)CCc1ccccc1)C(Cc1ccccc1)NC(=O)N1CCOCC1 (stereo partly drawn)	6.00
O=C(N[C@H](/C=C/S(=O)(=O)c1ccc2ccccc2c1)CCc1ccccc1)C(Cc1ccc2ccccc2c1)NC(=O)N1CCOCC1 (stereo partly drawn)	7.74
Br.N=C(N)NCCC[C@@H](/C=C/S(=O)(=O)c1ccccc1)NC(=O)[C@H](Cc1ccccc1)NC(=O)N1CCOCC1 [Mu-Phe-ArgVSPh.HBr, hydrobromide]	5.72
Br.CCOC(=O)/C=C/[C@H](CCCCN)NC(=O)[C@H](Cc1ccccc1)NC(=O)N1CCOCC1 [Mu-Phe-LysVEOEt.HBr, hydrobromide]	4.62

Report pKi for `CCOP(=O)(C/C=C/[C@H](CCc1ccccc1)NC(=O)[C@H](Cc1ccccc1)NC(=O)N1CCOCC1)OCC` please. 4.41

Report pKi for `CC(C)C[C@H](NC(=O)N1CCOCC1)C(=O)N[C@H](/C=C/S(=O)(=O)c1ccccc1)CCc1ccccc1` please. 6.09

Report pKi for O=C(NCCCC[C@@H](/C=C/S(=O)(=O)c1ccccc1)NC(=O)[C@H](Cc1ccccc1)NC(=O)N1CCOCC1)OCc1ccccc1 [Mu-Phe-Lys(Z)VSPh] please. 5.42

Report pKi for Br.NCCCC[C@@H](/C=C/S(=O)(=O)c1ccccc1)NC(=O)[C@H](Cc1ccccc1)NC(=O)N1CCOCC1 [Mu-Phe-LysVSPh.HBr, hydrobromide] please. 5.85

---

Target: Cathepsin L from rat liver (Rattus norvegicus)
Construct: Cathepsin L from rat liver; from tissue; host or cells: rat liver
Assay: Inhibition of cathepsin L, Z-Phe-Arg-AMC fluorescence progress curves
Assay type: biochemical
Measure Name: kirr (s⁻¹)
Numbers only; they are read as s⁻¹.

Some solved entries appear below for comparison.
CCOP(=O)(C/C=C/[C@H](CCc1ccccc1)NC(=O)[C@H](Cc1ccccc1)NC(=O)N1CCOCC1)OCC [Mu-Phe-HphVPEt]	0.16
Br.N=C(N)NCCC[C@@H](/C=C/S(=O)(=O)c1ccccc1)NC(=O)[C@H](Cc1ccccc1)NC(=O)N1CCOCC1 [Mu-Phe-ArgVSPh.HBr]	0.67
O=C(NCCCC[C@@H](/C=C/S(=O)(=O)c1ccccc1)NC(=O)[C@H](Cc1ccccc1)NC(=O)N1CCOCC1)OCc1ccccc1 [Mu-Phe-Lys(Z)VSPh]	0.45
O=C(N[C@H](/C=C/S(=O)(=O)c1ccc2ccccc2c1)CCc1ccccc1)C(Cc1ccc2ccccc2c1)NC(=O)N1CCOCC1 (stereo partly drawn) [Mu-Np-HphVSNp]	0.14
Br.CCOC(=O)/C=C/[C@H](CCCCN)NC(=O)[C@H](Cc1ccccc1)NC(=O)N1CCOCC1 [Mu-Phe-LysVEOEt.HBr]	0.085

Now consider the entry below.
Report kirr for CC(C)C[C@H](NC(=O)N1CCOCC1)C(=O)N[C@H](/C=C/S(=O)(=O)c1ccccc1)CCc1ccccc1 [Mu-Leu-HphVSPh] please. 0.40

---

Lab note: Ki readings collected with UniProtKB P25779 for the following compounds.
Sequence (P25779 123-337 limits assumed): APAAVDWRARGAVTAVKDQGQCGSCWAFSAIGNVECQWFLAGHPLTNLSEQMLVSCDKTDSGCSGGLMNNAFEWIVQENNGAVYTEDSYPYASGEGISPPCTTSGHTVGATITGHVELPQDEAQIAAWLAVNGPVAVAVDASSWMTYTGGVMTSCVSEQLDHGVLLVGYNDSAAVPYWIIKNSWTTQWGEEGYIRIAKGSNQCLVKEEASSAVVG
Numbers only; they are read as nM.

O=C(N[C@H](/C=C/S(=O)(=O)c1ccccc1)CCc1ccccc1)C(Cc1ccccc1)NC(=O)N1CCOCC1 (stereo partly shown) [Mu-Phe-HphVSPh]	3200
O=C(N[C@H](/C=C/S(=O)(=O)c1ccc2ccccc2c1)CCc1ccccc1)[C@H](Cc1ccccc1)NC(=O)N1CCOCC1 [Mu-Phe-HphVSNp]	110
CC(C)C[C@H](NC(=O)N1CCOCC1)C(=O)N[C@H](/C=C/S(=O)(=O)c1ccccc1)CCc1ccccc1 [Mu-Leu-HphVSPh]	520

Now consider the entry below.
Give recorded Ki with UniProtKB P25779 for the following compound: O=C(N[C@H](/C=C/S(=O)(=O)c1ccc2ccccc2c1)CCc1ccccc1)C(Cc1ccc2ccccc2c1)NC(=O)N1CCOCC1 (stereo partly shown) [Mu-Np-HphVSNp] 25
